Test system: HCT-116 cells
Experimental Protocol: Apoptosis and cell cycle by PI staining / FACS in HCT-116 cells
Type: cell-based, human
Condition Description: HCT-116, 48 hr in presence of serum, maximally effective concentration, FACS
Assign labels as follows, please: satisfied for Apoptosis (PI Staining), relative apoptosis ratio over vehicle below 2; not satisfied for Apoptosis (PI Staining), relative apoptosis ratio over vehicle equal to or exceeding 2.

Compound | Cat
COc1ccc2c(c1)c(CC(=O)O)c(C)n2C(=O)c1ccc(Cl)cc1 | not satisfied
CSc1ccc(/C=C2/C(C)=C(CC(=O)O)c3cc(F)ccc32)cc1 [Sulindac Sulfide] | not satisfied
CC(=O)Oc1ccccc1C(=O)O | not satisfied
CC1(C)OC(=O)C(c2cccc(F)c2)=C1c1ccc(S(C)(=O)=O)cc1 | satisfied
Cc1ccc(-c2cc(C(F)(F)F)nn2-c2ccc(S(N)(=O)=O)cc2)cc1 | satisfied
CN1C(C(=O)Nc2ccccn2)=C(O)c2ccccc2S1(=O)=O | satisfied
CS(=O)(=O)Nc1ccc([N+](=O)[O-])cc1OC1CCCCC1 | satisfied
CC(C)Cc1ccc(C(C)C(=O)O)cc1 (stereo not shown) | not satisfied
CC1=C(CC(=O)O)c2cc(F)ccc2/C1=C\c1ccc(S(C)(=O)=O)cc1 | satisfied
O=C(O)Cc1ccccc1Nc1c(Cl)cccc1Cl | not satisfied
O=C([O-])c1ccccc1O.[Na+] [Sodium Salicylate] | satisfied
CC(=O)Nc1ccc(O)cc1 | satisfied
CC1=C(CC(=O)O)c2cc(F)ccc2/C1=C\c1ccc([S+](C)[O-])cc1 (stereo not shown) | satisfied
